- Measured Target: HER2 expressed on the surface of cells (human, UniProt P04626 23-1255)
- Test: cell-based or functional assay
Assay Endpoint: growth inhibition span ratio to WT, SKBR3 cells (fold)
Give the value in fold but do not write fold after it.

Sure, the documented growth inhibition span ratio to WT, SKBR3 cells for Variant 14019 (antibody, name in Kabat numbering, V domains shown, also called v14019) VH: EVQLVESGGGLVQPGGSLRLSCAASGFTFQDYTMDWVRQAPGKGLEWVGDVNPNSGGSIYNQRFKGRFTFSVDRSWNTLYLQMNSLRAEDTAVYYCARNLGPSFYFDYWGQGTLVTVSS VL: DIQMTQSPSSLSASVGDRVTITCKASQDVSIGVAWYQQKPGKAPKLLIYSASYRYTGVPSRFSGSGSGTDFTLTISSLQPEDFATYYCQQYYIYPYTFGQGTKVEIKR is 1.5

Sure, the documented growth inhibition span ratio to WT, SKBR3 cells for Variant 14020 (antibody, name in Kabat numbering, V domains shown, also called v14020) VH: EVQLVESGGGLVQPGGSLRLSCAASGFTFQDYTMDWVRQAPGKGLEWVGDVNPNSGGSIYNQRFKGRFTFSVDRSKNTLYLQMNSLRAEDTAVYYCARNLGPWFYFDYWGQGTLVTVSS VL: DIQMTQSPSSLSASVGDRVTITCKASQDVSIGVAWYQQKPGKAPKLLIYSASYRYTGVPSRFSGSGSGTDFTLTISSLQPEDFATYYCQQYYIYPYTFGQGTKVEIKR is 1.6

Sure, the documented growth inhibition span ratio to WT, SKBR3 cells for Variant 14023 (antibody, name in Kabat numbering, V domains shown, also called v14023) VH: EVQLVESGGGLVQPGGSLRLSCAASGFTFQDYTMDWVRQAPGKGLEWVGDVNPNSGGSIYNQRFKGRFTFSVDRSWNTLYLQMNSLRAEDTAVYYCARNLGPWFYFDYWGQGTLVTVSS VL: DIQMTQSPSSLSASVGDRVTITCKASQDVSIGVAWYQQKPGKAPKLLIWSASYRYTGVPSRFSGSGSGTDFTLTISSLQPEDFATYYCQQYYIYPYTFGQGTKVEIKR is 1.9
